Reference source: ChEMBL document CHEMBL1152930

# Tested on: HL-60
# assay: Antiproliferative activity against human HL60 cells
# Assay type: functional, cell-based
parameter-measured: IC50 (µM)

INSERT INTO results (molecule, test_value) VALUES
  ('CC1(C)CCC(C)(C)c2cc(NC(=O)c3ccc(C(=O)O)cc3)ccc21 [TAMIBAROTENE]', 6);

* * *

# Tested on: MOLT-4
# assay: Antiproliferative activity against HTLV1-deficient human MOLT4 cells after 4 days by MTT assay
# Assay type: functional, cell-based
# details: MOLT-4, 96 h
parameter-measured: IC50 (µM)

INSERT INTO assay_data (structure_as_smiles, system, parameter_measured, bound_type, test_value) VALUES
  ('CC(=O)c1cc(C)cc(C)c1', 'MOLT-4', 'IC50', '>', 100),
  ('CC1(C)CCC(C)(C)c2ccccc21', 'MOLT-4', 'IC50', '>', 100),
  ('CC(=O)c1ccc(C)cc1C', 'MOLT-4', 'IC50', '>', 100),
  ('CC(=O)c1ccc(C)c(C)c1', 'MOLT-4', 'IC50', '>', 100),
  ('CC1(C)CCC(C)(C)c2cc(C(=O)O)c(O)cc21', 'MOLT-4', 'IC50', '=', 44.4),
  ('CC(C)(C)C(=O)c1cc2c(cc1O)C(C)(C)CCC2(C)C', 'MOLT-4', 'IC50', '=', 43.2),
  ('CC1(C)CCC(C)(C)c2cc(C(=O)c3ccccc3)c(O)cc21', 'MOLT-4', 'IC50', '=', 28.3);
